All figures here come from the supplement of paper PMC9170038.

apparent KD of K4 kissing-loop reporter values by entry
system: K4 kissing-loop RNA reporter; assay: apparent KD of K4 kissing-loop reporter; higher = weaker reporter binding; settings: Eterna round: R107; input ligand: none
Write down the numeric answer in nM and omit the unit.

AGGUCCGAGCCCGGAAGGGCUCGGACCUGUUAGGAUAUGACGUGAUUCAGAAGGGAUGGGUGGAGUGAUGUUCCACCCGAGAGGG [#2 Same State - FMN A Attempt #20 (HarryS)] ... 91.2
GGAGUUACCUGGGAUACCAGUCGGAGUCUCAGAGCUCGGAGUGAUGUUCUGGGAUGUUUCGGCCCUUGGCAGCUCUGGGACUCCA [#2 Exclusion - Theophylline B Attempt #16 (HarryS)] ... 863
AGUGUGCAAAAGCACACUCAGCACAAGGACAAGGAUAUCUACUAAUAGAGAAGGUGUCCUUUCCUUAGUGAUGUUAAGGAGCUGA [Omei KL FMN A SS D v1] ... 700

What is its apparent KD of K4 kissing-loop reporter for K4 kissing-loop RNA reporter? Entry: GGAAAUUGAUCAACGCAGUGAUGUUGCGAUACCAGACACAAAGCCGUCCCUUGGCAGCGCGGGACAUUAAUGGAUCUAUGGGUUC [theeternabot_exclusion_KL_Theo_A_26]
68.2

// next record AAUCCUAACGGAGUGAUGUUCCGUAGCGAUACCAGCCAUUGCGAUGGCCCUUGGCAGCGCUAUAAGCAUUGCUAGUAAGGGCCAA [Theo A Ex t7]
168

// next record UAGAGUCACAAGACAGUGAUGUUGUCUACUGAGGAUAUCAUGAAUAUGAGAAGGCAGUGUUGGAGGUCUCUAACAACAGACUCUG [FMN A SS t3]
389

====

system: MS2 coat protein; assay: apparent KD of MS2 coat protein; designed switch direction (-1 OFF switch, 1 ON switch): -1; higher = weaker reporter binding; conditions: input ligand: microRNA oligo, concentration not stated
Recorded endpoint: apparent KD of MS2 coat protein (nM)
Write down the numeric answer in nM and omit the unit.

Some solved cases for reference:
ACAUGUCAUUGAGGAUAUCGCACACAUGAGGAUCACCCAUGUAAACGGAUGCUCUUACGUGGGUUCGAGAAGGCGAUGUACAUU [Ex NG2 #95] (Eterna round: R96, puzzle: Exclusion NG 2) ... 112
CCCAGUUAUCAAGGAUAUUGUACAUGAGGAUCACCCAUGUAAUAAAUGAGGAUUUCGGGUGUCUACAAGAAGGUGAGGAUAGGC [Ostracism 15 - Jieux - Exclusion NG 2] (Eterna round: R96, puzzle: Exclusion NG 2) ... 22.4

For GAAAAUUGGGCAGGAUAUCUAAUGAAAGAAACCGGAGAAGGGCCGGUGGCAAUUGCAGACAUGAGGAUCACCCAUGUAGUUGCA [Eternabot solution 42] (Eterna round: R96, puzzle: Exclusion NG 1) , what is its reported apparent KD of MS2 coat protein?
15.2

// next record UAAGAUUACCGAGGAUAUGGUAGUUUCUAUUAACCAGAAGGCGGACUCAACAUGAGGAUCACCCAUGUAUAAAGGGUAUUAGAU [JR_ExcNG1_Sub041] (Eterna round: R96, puzzle: Exclusion NG 1)
56.4

====

test system: K4 kissing-loop RNA reporter; assay: apparent KD of K4 kissing-loop reporter; higher = weaker reporter binding; conditions: Eterna round: R107; input ligand: arginine 13.2 mM;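 note: bound reporter read as fluorescence of individual clusters on recovered sequencing chips by microscopy, with normalized cluster intensities fitted with a binding model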
Recorded endpoint: apparent KD of K4 kissing-loop reporter (nM)
Write down the numeric answer in nM and omit the unit.

Some solved cases for reference:
UGGACCUGACUCGAUAAGAGUCAAUGAGAUACCAGCCACGAAAGUGGCCCUUGGCAGCUCUGCCAGUGAUGUUGGUCAAGGUCCU [#SwitchBubble 5 #StaticStem] ... 889
CUGCCGUUUACAGAUACCAGACUAAUAACGGCAGCACAGAAUGUGAGUGAUGUUCGCAUAGUCCCUUGGCAGCUGUAUAACAGUA [Theo B Ex t3] ... 199
AGACUACCACACUGUCAAUAGACAGUGUACUAGGAUAUGCUGAUAAGCAGAAGGAGUGAUGUUCCUCGGUAGUCAAUAAAAUAAU [FmnAX 13 U28+C67] ... 300
UAUGUACACGGGUAGUUGUACAUCGAGGAAGGAGCGUGCGCAGGCACAGGUAGGUCGCCUCAGCGCACGAGUGAUGUUCGUGGGC [Xexegeus] ... 170

For UGGCGAGUGAUGUUCGUUGUUGUAGUGUGCCGAGGACCGGUACGGCCGCCACUCGGGUUGGUUGUUGUUGUUGUUGUUGUUGUUG [whbob_SS_tryp_A] , what is its reported apparent KD of K4 kissing-loop reporter?
110

// next record CGAGUGAUGUUCGUUUUUUACUCUUUUUGACAGGAUAUGCGGAAACGCAGAAGGGUCACCUUUGAGUUAAAAGGAGUUAUUUUUU [Ex FMN A 19]
269

====

apparent KD of MS2 coat protein values by entry
system: MS2 coat protein; assay: apparent KD of MS2 coat protein; designed switch direction (-1 OFF switch, 1 ON switch): -1; higher = weaker reporter binding; conditions: input ligand: none
Write down the numeric answer in µM and omit the unit.

Some solved cases for reference:
CAGUACUGAGGAUAUACAUGAGGAUCACCCAUGUGUUCCAGCUAGGAGACUAGCAAAUGUAGAAGGCAGUACUG [jl-ex3-4.02 salish99 mod] (Eterna round: R97, puzzle: Exclusion 3) ... 0.406
UUUUGGCAAGCGAGAUCCCACAUGAGGAUCACCCAUGUUGACCAUGGUUUCCAUGGUCAUUUUGCUCGUCUUGUGUG [jl TITIN mod 1] (Eterna round: R97, puzzle: Sensor, turn-off variant 1) ... 0.0318

Turning now to a further record.
For AUGCGACAUGAGGAUCACCCAUGUGAGGAUAUUCGAAUGCACAAUUCGGUGUGAUAGAGGAGAAGGCGCAGGUA [EX1 #19] (Eterna round: R97, puzzle: Exclusion 1) , what is its reported apparent KD of MS2 coat protein?
0.243

====

test system: MS2 coat protein; assay: apparent KD of MS2 coat protein; designed switch direction (-1 OFF switch, 1 ON switch): -1; higher = weaker reporter binding; conditions: input ligand: none
Each record's apparent KD of MS2 coat protein is compared with low = under 20 nM, intermediate = from 20 nM up to 50 nM, high = 50 nM and over to give its class.

Solved entries:
CUAUGCAAAGUAAGGAUAUGCUUCCGGAAACGGAGGCAGAAGGUACAUGAGGAUCACCCAUGUUAAACGCAUAG [Explosion 4 - Jieux - Brourd's mod of Exclusion 4] (Eterna round: R97, puzzle: Brourd's mod of Exclusion 4) ... low
CUAAGUCGAGGAUAUGCAUGGUGACAUGAUGCCGAUGCACGACAUGAGGAUCACCCAUGUAGAAGGCGACUUAG [Eternabot (L2) Solution 50] (Eterna round: R97, puzzle: Exclusion 2) ... high
GUCGAUGUCAAAGGAUAUCAGCACGUUUAGUGCUGAGAAGGUUGAACAUGAGGAUCACCCAUGUAGAUCAUUAACGACUUAAUU [ENG1/10-A1] (Eterna round: R96, puzzle: Exclusion NG 1) ... intermediate
CUUCACGGAGGAUAUGCGGGCUGCGACAUGAGGAUCACCCAUGUUUAUGGAGCUUGGCAUGCAGAAGGCCGGGAGC [Eternabot (L2) Solution 19] (Eterna round: R97, puzzle: Exclusion 5) ... low
UUUUUCUGGCAAGGAUAUCCUGUGCGGUUCCGGCUCGUGUCUGUUACAUGAGGAUCACCCAUGUGGGAGAAGGUGCCUGUGGUU [Design 88] (Eterna round: R96, puzzle: Exclusion NG 2) ... intermediate

Input UGCCGUUGAGGAUAUACAUAGAAAUAGAUUCAUGUAAAACUACAUGAGGAUCACCCAUGUAGAAGGCAAUGGCU [Mat - Exclusion 2 - JL Mod - D51] (Eterna round: R97, puzzle: Exclusion 2) ; output its category
intermediate

====

system: MS2 coat protein; assay: apparent KD of MS2 coat protein; higher = weaker reporter binding; details: Eterna round: R107; input ligand: theophylline 2 mM
Recorded endpoint: apparent KD of MS2 coat protein (nM)
Write down the numeric answer in nM and omit the unit.

Some solved cases for reference:
AUACCACCUUCGGCCGCCACUAUGUAUGGGUUCCCAACGUUGAAGGACAUGAGGAUCACCCAUGUUAGGACCGGGAAAAGUGCCU [theeternabot_exclusion_MS2_Trp_B_17] ... 103
GUAUCUAUGUGAAAUAGAUAUGUAACUGAAGGAGCGUCAUUAAGGACAGGUAGGUCGCGGAGCACAUGAGGAUCACCCAUGUCGG [#09 Same State - Arginine A] ... 35.5

Turning now to a further record.
For AAUUAUCAGUCGGCCGCCACUGACACAUGAGGAUCACCCAUGUAACUUGGGUUAAAUUUAAUAAACAGGACCGGGACAAAGGCUA [JR_ExcTryptoB_Sub010] , what is its reported apparent KD of MS2 coat protein?
192
